ASSAYED_TARGET: HLA-B*1801 (human)
ASSAY_COMMENT: competition binding assay, purified HLA
CONDITION_DESCRIPTION: remark: other sources report otherwise
OBSERVED_PROPERTY: pIC50
pIC50 (log units): -log10 of the concentration in mol/L.

Provide measured pIC50 value, entry: EEYLVPQQGF [Her2/neu 1021 EBYLVPQQGF]
7.92
